# Test system: Mycobacterium tuberculosis
# Test Summary: Antitubercular activity against isoniazid, rifampicin and ethambutol-resistant Mycobacterium tuberculosis clinical isolate after 28 days by agar dilution method
# Type: functional
# Settings: 672 h
Each item that follows carries a reported MIC.

Worked set:
C[C@H](c1ccccc1)N1CC2=C(OC(N)=C(c3nc(-c4ccccc4)no3)C2c2ccc(Cl)cc2Cl)/C(=C/c2ccc(Cl)cc2Cl)C1 (stereo in doubt; 9g) = 0.57 µM
CC[C@@H](CO)NCCN[C@@H](CC)CO = 61.2 µM

We next turn to a different molecule, shown below.
input: Name the recorded MIC for CO[C@H]1/C=C/O[C@@]2(C)Oc3c(C)c(O)c4c(O)c(c(/C=N/N5CCN(C)CC5)c(O)c4c3C2=O)NC(=O)/C(C)=C\C=C\[C@H](C)[C@H](O)[C@@H](C)[C@@H](O)[C@@H](C)[C@H](OC(C)=O)[C@@H]1C .
output: 3.8 µM

###

# Test system: Mycobacterium tuberculosis
# Test Summary: Antitubercular activity against isoniazid, rifampicin and ethambutol-resistant Mycobacterium tuberculosis clinical isolate after 28 days by agar dilution method
# Type: functional
# Settings: 672 h
Parameter Measured: MIC (µM)
Dear colleague, please return just the value in µM, with no unit written.

C[C@H](c1ccccc1)N1CC2=C(OC(N)=C(c3nc(-c4ccc(Cl)cc4)no3)C2c2ccc(Cl)cc2Cl)/C(=C/c2ccc(Cl)cc2Cl)C1 (stereo in doubt; 9h) = 0.14
C[C@H](c1ccccc1)N1CC2=C(OC(N)=C(c3nc(-c4ccccc4)no3)C2c2ccccc2)/C(=C/c2ccccc2)C1 (stereo in doubt; 10a) = 5.54
C[C@H](c1ccccc1)N1CC2=C(OC(N)=C(c3nc(-c4ccc(Cl)cc4)no3)C2c2ccccc2Cl)/C(=C/c2ccccc2Cl)C1 (stereo in doubt; 9f) = 0.6
Cc1ccc(/C=C2\CN([C@H](C)c3ccccc3)CC3=C2OC(N)=C(c2nc(-c4ccc(Cl)cc4)no2)C3c2ccc(C)cc2)cc1 (stereo in doubt; 9d) = 1.24
C[C@H](c1ccccc1)N1CC2=C(OC(N)=C(c3nc(-c4ccccc4)no3)C2c2ccccc2Cl)/C(=C/c2ccccc2Cl)C1 (stereo in doubt; 9e) = 1.23

input: Name the recorded MIC for NNC(=O)c1ccncc1 .
output: 11.4

input: Try the molecule C[C@H](c1ccccc1)N1CC2=C(OC(N)=C(c3nc(-c4ccc(Cl)cc4)no3)C2c2ccccc2)/C(=C/c2ccccc2)C1 (stereo in doubt; 10b)
output: 2.6
